# Species on record: Rattus norvegicus
# procedureText: Thyroxine-like activity in rat by antigoiter assay relative to control
# Assay type: functional
This section presents compounds with their documented Activity values.
testReadout: Activity (%)

structureSmilesString | numericValue
Cc1cc(C[C@H](N)C(=O)O)cc(C)c1Oc1ccc(O)c(C(C)C)c1 | 18
N[C@@H](Cc1cc(I)c(Oc2cc(F)c(O)c(I)c2)c(I)c1)C(=O)O | 28
N[C@@H](Cc1cc(I)c(Oc2ccc(O)c(F)c2)c(I)c1)C(=O)O | 8
N[C@@H](Cc1cc(I)c(Oc2ccc(O)c(Cl)c2)c(I)c1)C(=O)O | 27
N[C@@H](Cc1cc(I)c(Oc2cc(F)c(O)c(F)c2)c(I)c1)C(=O)O | 1.8
Cc1cc(C[C@H](N)C(=O)O)cc(C)c1Oc1ccc(O)c(I)c1 | 5
Cc1cc(Oc2c(C)cc(C[C@H](N)C(=O)O)cc2C)cc(C)c1O | 2
N[C@@H](Cc1cc(I)c(Oc2cc(Br)c(O)c(Br)c2)c(I)c1)C(=O)O | 10
Cc1cc(Oc2c(I)cc(C[C@H](N)C(=O)O)cc2I)ccc1O | 126
N[C@@H](Cc1cc(Br)c(Oc2ccc(O)c(I)c2)c(Br)c1)C(=O)O | 130

----------
# Organism: Rattus norvegicus
# procedureText: Thyroxine-like activity in rat by antigoiter assay relative to control
# Assay type: functional
Threshold 1. log(activity) below it: Condition met. log(activity) at it or above: Condition not met.

structureSmilesString | className
Cc1cc(Oc2c(C)cc(C[C@H](N)C(=O)O)cc2C)cc(C)c1O | Condition met
N[C@@H](Cc1cc(I)c(Oc2ccc(O)c(I)c2)c(I)c1)C(=O)O | Condition not met
Cc1cc(Oc2c(I)cc(C[C@H](N)C(=O)O)cc2I)ccc1O | Condition not met
Cc1cc(C[C@H](N)C(=O)O)cc(I)c1Oc1ccc(O)c(I)c1 | Condition not met
N[C@@H](Cc1cc(I)c(Oc2ccc(O)c(-c3ccccc3)c2)c(I)c1)C(=O)O | Condition not met
Cc1cc(C[C@H](N)C(=O)O)cc(C)c1Oc1ccc(O)c(I)c1 | Condition met
N[C@@H](Cc1cc(Br)c(Oc2cc(Br)c(O)c(Br)c2)c(Br)c1)C(=O)O | Condition met
N[C@@H](Cc1cc(I)c(Oc2cc(Cl)c(O)c(Cl)c2)c(I)c1)C(=O)O | Condition met
CC(C)Cc1cc(Oc2c(I)cc(C[C@H](N)C(=O)O)cc2I)ccc1O | Condition not met
Cc1cc(Oc2c(C)cc(C[C@H](N)C(=O)O)cc2C)ccc1O | Condition met
N[C@@H](Cc1cc(I)c(Oc2ccc(O)c(Cl)c2)c(I)c1)C(=O)O | Condition not met
CC(C)c1cc(Oc2c(Br)cc(C[C@H](N)C(=O)O)cc2Br)ccc1O | Condition not met
CC(C)c1cc(Oc2c(I)cc(C[C@H](N)C(=O)O)cc2I)ccc1O | Condition not met
CC(C)(C)c1cc(Oc2c(I)cc(C[C@H](N)C(=O)O)cc2I)ccc1O | Condition not met
Cc1cc(C[C@H](N)C(=O)O)cc(C)c1Oc1ccc(O)c(C(C)C)c1 | Condition not met
N[C@@H](Cc1cc(Br)c(Oc2ccc(O)c(I)c2)c(Br)c1)C(=O)O | Condition not met
N[C@@H](Cc1cc(I)c(Oc2cc(F)c(O)c(I)c2)c(I)c1)C(=O)O | Condition not met
N[C@@H](Cc1cc(Br)c(Oc2cc(I)c(O)c(I)c2)c(Br)c1)C(=O)O | Condition not met
CCc1cc(Oc2c(I)cc(C[C@H](N)C(=O)O)cc2I)ccc1O | Condition not met
N[C@@H](Cc1cc(I)c(Oc2cc(I)c(O)c(I)c2)c(I)c1)C(=O)O | Condition not met

----------
# System: Bacillus subtilis
# procedureText: Antimicrobial activity against Bacillus subtilis
# Assay type: functional
This section presents compounds with their documented log(1/C) values.

structureSmilesString | system | log(1/C)
C=C(C)C(=O)Oc1ccccc1 | Bacillus subtilis | 2.89
C=C(C)C(=O)Oc1c(Br)c(Br)c(Br)c(Br)c1Br | Bacillus subtilis | 5.32
C=C(C)C(=O)Oc1ccccc1Cl | Bacillus subtilis | 3.08
C=C(C)C(=O)Oc1ccc(Cl)cc1 | Bacillus subtilis | 3.25
C=C(C)C(=O)Oc1cccc(Cl)c1 | Bacillus subtilis | 2.91
C=C(C)C(=O)Oc1c(Cl)cc(Cl)cc1Cl | Bacillus subtilis | 3.76
C=C(C)C(=O)Oc1c(Cl)cc(Cl)c(Cl)c1Cl | Bacillus subtilis | 4.67

----------
# Tested on: Wickerhamomyces anomalus
# procedureText: Antimicrobial activity against Hansenula anomala
# Assay type: functional
testReadout: log(1/C)

structureSmilesString | testReadout | numericValue
C=C(C)C(=O)Oc1ccccc1Cl | log(1/C) | 3.28
C=C(C)C(=O)Oc1ccc(Cl)cc1Cl | log(1/C) | 3.49
C=C(C)C(=O)Oc1cccc(Cl)c1 | log(1/C) | 3.12
C=C(C)C(=O)Oc1ccccc1 | log(1/C) | 2.89
C=C(C)C(=O)Oc1c(Cl)c(Cl)c(Cl)c(Cl)c1Cl | log(1/C) | 3.35
C=C(C)C(=O)Oc1c(Br)c(Br)c(Br)c(Br)c1Br | log(1/C) | 3.35
C=C(C)C(=O)Oc1c(Cl)cc(Cl)c(Cl)c1Cl | log(1/C) | 3.45
C=C(C)C(=O)Oc1c(Cl)cc(Cl)cc1Cl | log(1/C) | 3.46
C=C(C)C(=O)Oc1cc(Cl)c(Cl)cc1Cl | log(1/C) | 3.54
C=C(C)C(=O)Oc1ccc(Cl)cc1 | log(1/C) | 3.25

----------
This section presents compounds with their documented log(1/C) values.
# Test system: Bacillus cereus
# procedureText: Antimicrobial activity against Bacillus cereus
# Type: functional

structureSmilesString | log(1/C)
C=C(C)C(=O)Oc1c(Br)c(Br)c(Br)c(Br)c1Br | 3.85
C=C(C)C(=O)Oc1ccc(Cl)cc1Cl | 3.49
C=C(C)C(=O)Oc1ccccc1 | 2.89
C=C(C)C(=O)Oc1c(Cl)cc(Cl)c(Cl)c1Cl | 4.45
C=C(C)C(=O)Oc1cccc(Cl)c1 | 2.91
C=C(C)C(=O)Oc1c(Cl)c(Cl)c(Cl)c(Cl)c1Cl | 5
C=C(C)C(=O)Oc1c(Cl)cc(Cl)cc1Cl | 3.76
C=C(C)C(=O)Oc1cc(Cl)c(Cl)cc1Cl | 3.84
C=C(C)C(=O)Oc1ccccc1Cl | 3.08
C=C(C)C(=O)Oc1ccc(Cl)cc1 | 3.25

----------
This section presents compounds with their documented log(1/C) values.
# Test system: Bacillus subtilis
# procedureText: Antimicrobial activity against Bacillus subtilis
# Format: functional
testReadout: log(1/C)

structureSmilesString | testReadout | numericValue
C=C(C)C(=O)Oc1c(Cl)c(Cl)c(Cl)c(Cl)c1Cl | log(1/C) | 5
C=C(C)C(=O)Oc1cc(Cl)c(Cl)cc1Cl | log(1/C) | 3.84
C=C(C)C(=O)Oc1ccc(Cl)cc1Cl | log(1/C) | 3.8

----------
# Species: Rattus norvegicus
# procedureText: Thyroxine-like activity in rat by antigoiter assay relative to control
# Assay type: functional

structureSmilesString | Activity
N[C@@H](Cc1cc(I)c(Oc2cc(I)c(O)c(I)c2)c(I)c1)C(=O)O | 100%
Cc1cc(Oc2c(C)cc(C[C@H](N)C(=O)O)cc2C)ccc1O | 3%
CCc1cc(Oc2c(I)cc(C[C@H](N)C(=O)O)cc2I)ccc1O | 506%
N[C@@H](Cc1cc(Cl)c(Oc2cc(I)c(O)c(I)c2)c(Cl)c1)C(=O)O | 0.1%
N[C@@H](Cc1cc(I)c(Oc2ccc(O)c(O)c2)c(I)c1)C(=O)O | 1.5%
CC(C)Cc1cc(Oc2c(I)cc(C[C@H](N)C(=O)O)cc2I)ccc1O | 60%
N[C@@H](Cc1cc(I)c(Oc2ccc(O)c(-c3ccccc3)c2)c(I)c1)C(=O)O | 32%
Cc1cc(C[C@H](N)C(=O)O)cc(I)c1Oc1ccc(O)c(I)c1 | 40%

----------
# Organism: Rattus norvegicus
# procedureText: Thyroxine-like activity in rat by antigoiter assay relative to control
# Assay type: functional
testReadout: Activity (%)

compound | numericValue
CC(C)(C)c1cc(Oc2c(I)cc(C[C@H](N)C(=O)O)cc2I)ccc1O | 120
N[C@@H](Cc1cc(I)c(Oc2ccc(O)c(Br)c2)c(I)c1)C(=O)O | 138
N[C@@H](Cc1cc(I)c(Oc2ccc(O)c(I)c2)c(I)c1)C(=O)O [LIOTHYRONINE] | 545
N[C@@H](Cc1cc(Br)c(Oc2cc(I)c(O)c(I)c2)c(Br)c1)C(=O)O | 12.5
CC(C)c1cc(Oc2c(I)cc(C[C@H](N)C(=O)O)cc2I)ccc1O | 868
N[C@@H](Cc1cc(I)c(Oc2cc(Cl)c(O)c(Cl)c2)c(I)c1)C(=O)O | 0.9
N[C@@H](Cc1cc(Br)c(Oc2cc(Br)c(O)c(Br)c2)c(Br)c1)C(=O)O | 0.51
CC(C)c1cc(Oc2c(Br)cc(C[C@H](N)C(=O)O)cc2Br)ccc1O | 450
N[C@@H](Cc1cc(Br)c(Oc2ccc(O)c(Br)c2)c(Br)c1)C(=O)O | 44
N[C@@H](Cc1cc(I)c(Oc2ccc(O)cc2)c(I)c1)C(=O)O | 10

Reference source: ChEMBL document CHEMBL3272085
